# Protocol: OD615 S. cerevisiae growth inhibition, permissive medium, pilot counter-assay, permissive growth control for S. cerevisiae lifespan shortening project (AID 705)
# Experimental setup: OD615, 24 h, at 10 µM, hits give high values
Active and inactive are the calls of the source.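 Rule for the calls: active = growth inhibition above 25% in both replicates, a cutoff set 3 SD above the mean; inconclusive = above 25% in only one replicate; inactive = the rest.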
Examples of compounds with documented growth inhibition follow.

Below are worked cases with known answers.
Entry CCOC(=O)c1c(C)n(C)c2ccc(OCC(O)CN(CC)CC)cc12 (stereo unspecified) , growth inhibition reported as -9.63% (inactive)

Entry COc1ccc(NC(=O)C2CCC(C)(C(=O)O)C2(C)C)cc1 (stereo unspecified) , growth inhibition reported as 1% (inactive)

Entry O=C(NCN1CCc2ccccc2C1)c1cnccn1 , growth inhibition reported as -18.3% (inactive)

Continuing:
Entry CCCCn1c(NC(=O)c2ccccc2)nc2ccccc21 , growth inhibition reported as 8.39% (inactive)

Entry CCCCCn1c(CNC(=O)c2cccs2)nc2ccccc21 , growth inhibition reported as -5.02% (inactive)

Entry O=C(NCc1cn2ccsc2n1)c1c(F)cccc1Cl , growth inhibition reported as -10.2% (inactive)
